# Lookup of reported melting point keyed by entry

1. CC(C)(C)CC(=O)Nc1cc(-c2ccnc3c(C(=O)c4cccs4)cnn23)ccc1F : 180 to 181 °C
2. CCCCCCCCCCOc1ccc(-c2ccc(CCCCC(C)OC(C)=O)cc2)cc1 (stereo not drawn) : 75 to 76 °C
3. COc1ccnc(CCc2nc3cc(-c4ccc(S(=O)(=O)N5CCC(C(=O)c6ccccc6)CC5)cc4)cnc3[nH]2)c1 : 174 to 175 °C
4. CNCC1Cc2cc(F)cc(-c3ccccc3C)c2O1 (stereo not drawn) : 123 to 124 °C
5. COc1ccc2c(c1)CCC(N(CC(=O)O)C(=O)C(C)CSC(C)=O)C2 (stereo not drawn) : 118 to 122 °C

// Input: CC#CCOc1ccc(S(=O)(=O)C(C(=O)NO)c2ccc(-c3cccs3)cc2)cc1 (stereo not drawn) . Output its melting point only.
175 °C

Answer with the recorded melting point for the compound listed here: `C[C@@H](NC(=O)c1ccc(-c2ccccn2)s1)[C@](O)(Cn1cncn1)c1ccc(F)cc1F`
212 to 213 °C

Give recorded melting point. `CCC(=S)C1=C(C)NC2=C(C1)C(=O)c1ccccc12`
240 °C

Give the measured melting point for `O=C1c2cc3ccccc3cc2OC12CC2`
127 to 129 °C

Supply reported melting point belonging to this compound: `COC(=O)CCn1cc(Cc2cccnc2)c2cc(CCC(=O)O)ccc21`
108 to 110 °C

Look up melting point of `CSC1=Nc2ccncc2S(=O)(=O)N1C` and report it.
135 to 138 °C

Note melting point for the compound shown: `COc1ccc2cc(C(C)=O)cc(F)c2c1`
96 to 97 °C

For the compound `Nc1cccc(-c2ccc(CCN3Cc4ccccc4C3)cc2)n1` , give its reported melting point.
140 to 143 °C

* * *

# melting point per record follows

Answered cases to consult:
1) CN1CCc2cc3ccccc3n2CC1 : 59 to 60 °C
2) FC(F)(F)c1cccc(Nc2nccc(-c3ccnc(Cl)c3)n2)c1 : 169 to 171 °C
3) CC(C)Cc1cc(OCc2ccccc2)c2c(c1)OC(C)(C)CC2C(=O)Oc1ccc([N+](=O)[O-])cc1 (stereo unspecified) : 125 to 126 °C
4) CCC(Oc1cnc(Cl)c(Cl)c1)C(=O)O (stereo unspecified) : 117 to 118 °C

For `O=Cc1ccc2c(c1)c1cc(C=O)ccc1n2Cc1ccccc1` , write its melting point.
222 to 224 °C

Recall and state the measured melting point for `c1ccc(-c2ccc(-c3cn4ccc5ccccc5c4n3)cc2)cc1` .
221 to 222 °C

Look up and report measured melting point for this entry: `O=C(O)c1c(O)ccc2ccccc12`
218 °C

Specify melting point for `Cc1nc(O)c(C)c(NCC2CC2)n1` and stop.
227 to 228 °C

Fill in melting point for record `CCOC(=O)c1[nH]c(CC2CCC2)nc1C(F)(F)F`
136 to 138 °C

Return the recorded melting point value; entry: O=C1CCC(=O)N1Cc1nc2sc3c(c2c(-c2ccc(O)cc2)c1Cl)CCS(=O)C3 (stereo unspecified)
274 to 276 °C

Dear colleague, please send me the reported melting point for C1=NCC2Cc3ccccc3Cc3cccc1c32 (stereo unspecified) when you can.
91 to 93 °C

Look up and state reported melting point for `Nc1ccc2nc(-c3ccc4c(c3)OCO4)ncc2c1`
191 to 192 °C

Give the reported value of melting point for this record: COC(=O)C[C@H]1[C@H](NC(=O)OC(C)(C)C)CCN1C(=O)OCc1ccccc1 (relative stereo)
73 to 74 °C

Output melting point of `O=C(Nc1ccccc1)N1C(=O)C2(CCCCC2)NC12CCCCC2`
129 to 130 °C

Supply melting point value. Item: `COc1ccc(-c2ccc(C#N)cc2)cc1C(C)=O`
102 °C
